Recorded Kd for the following binders
- system: T1, human IL-18BP (human, UniProt O95998 31-194)
- T1 construct: UniProt printed as 095998; also called hIL-18BP
- T1 sequence: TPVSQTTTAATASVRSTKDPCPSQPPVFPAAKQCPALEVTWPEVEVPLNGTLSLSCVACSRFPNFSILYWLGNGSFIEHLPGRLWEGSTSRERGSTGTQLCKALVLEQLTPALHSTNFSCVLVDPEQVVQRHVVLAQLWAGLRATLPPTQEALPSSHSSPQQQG
- measurement_protocol: BLI, apparent KD
Respond with the figure and its unit, in that order.

# example entries with known answers
Prompt line: Indicate the recorded Kd value for this binder: SA301a HC-I51A (antibody, name in Kabat numbering, V domains shown, IgG1 kappa) VH: QVQLQESGPGLVKPSQTLSLTCTVSGYSITSDYNSHWIRQPPGKGLEWIGYAHYSGSTNYNPSLKSRVTISRDTSKNQFSLKLSSVTAADTAVYYCARNYGSIYVNYFDYWGQGTLVTVSS VL: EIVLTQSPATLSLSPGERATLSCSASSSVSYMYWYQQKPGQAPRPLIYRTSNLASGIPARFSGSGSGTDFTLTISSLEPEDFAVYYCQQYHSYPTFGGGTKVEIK
Response line: 0.73 nM

Prompt line: Give Kd for the following binder: SA301a HC-Y50Q (antibody, name in Kabat numbering, V domains shown, IgG1 kappa) VH: QVQLQESGPGLVKPSQTLSLTCTVSGYSITSDYNSHWIRQPPGKGLEWIGQIHYSGSTNYNPSLKSRVTISRDTSKNQFSLKLSSVTAADTAVYYCARNYGSIYVNYFDYWGQGTLVTVSS VL: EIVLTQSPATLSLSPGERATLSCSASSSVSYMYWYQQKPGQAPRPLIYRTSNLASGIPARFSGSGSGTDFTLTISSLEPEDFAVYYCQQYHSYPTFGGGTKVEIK
Response line: 1.13 nM

Next binder, Kd to be filled in.
Prompt line: Report Kd for SA301a HC-Y53V (antibody, name in Kabat numbering, V domains shown, IgG1 kappa) VH: QVQLQESGPGLVKPSQTLSLTCTVSGYSITSDYNSHWIRQPPGKGLEWIGYIHVSGSTNYNPSLKSRVTISRDTSKNQFSLKLSSVTAADTAVYYCARNYGSIYVNYFDYWGQGTLVTVSS VL: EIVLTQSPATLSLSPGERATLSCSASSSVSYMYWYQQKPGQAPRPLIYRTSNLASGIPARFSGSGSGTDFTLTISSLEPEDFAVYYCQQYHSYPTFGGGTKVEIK
Response line: 2.16 nM
